test system: apoB mRNA editing

{"Compound": "NCCNS(=O)(=O)c1cccc2c(Cl)cccc12 [A3]", "effect on editing in hepatocytes": "stimulated"}
{"Compound": "O=S(=O)(c1cccc2c(I)cccc12)N1CCCNCC1 [ML-7]", "effect on editing in hepatocytes": "did not affect editing"}
{"Compound": "O=S(=O)(NCCNC/C=C/c1ccc(Br)cc1)c1cccc2cnccc12 [H89]", "effect on editing in hepatocytes": "stimulated"}
{"Compound": "COc1ccc(S(=O)(=O)N(CCO)c2ccccc2CN(C)C/C=C/c2ccc(Cl)cc2)cc1 [KN93]", "effect on editing in hepatocytes": "stimulated"}
{"Compound": "COc1cccc(-c2cc(=O)c3ccccc3o2)c1N [PD98059]", "effect on editing in hepatocytes": "did not affect editing"}
